Hello, the source for this data is patent US20260166085A1, in case you need it.

Molecular target: T1, CC128 variant of CD117 (Y259C + N260D) purified protein (human, UniProt P10721 26-520, limits assumed)
T1 construct: also called CC128-edited CD117 as purified protein
T1 sequence (P10721 26-520 Y259C/N260D limits assumed): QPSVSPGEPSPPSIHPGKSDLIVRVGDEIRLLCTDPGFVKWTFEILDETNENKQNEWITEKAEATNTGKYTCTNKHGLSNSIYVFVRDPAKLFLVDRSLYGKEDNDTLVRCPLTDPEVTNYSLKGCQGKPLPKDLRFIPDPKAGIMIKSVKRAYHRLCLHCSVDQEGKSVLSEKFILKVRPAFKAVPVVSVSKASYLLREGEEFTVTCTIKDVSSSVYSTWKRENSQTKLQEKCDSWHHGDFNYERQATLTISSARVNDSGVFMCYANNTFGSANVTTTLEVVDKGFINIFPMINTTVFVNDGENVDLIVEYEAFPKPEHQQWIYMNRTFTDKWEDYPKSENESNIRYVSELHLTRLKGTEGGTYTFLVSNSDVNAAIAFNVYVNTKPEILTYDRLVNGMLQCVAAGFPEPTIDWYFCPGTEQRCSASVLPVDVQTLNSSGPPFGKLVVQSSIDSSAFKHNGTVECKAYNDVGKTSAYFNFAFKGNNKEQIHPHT
Test: binding kinetics grade, FIGS. 55A-55C

{"BINDER": "ABTx262 (antibody, human IgG1, kappa, V domains shown) VH: QVQLVQSGAAVKKPGESLKISCKGSGYRFTSYWIGWVRQMPGKGLEWMGIIYPGDSDTRYSPSFQGQVTISAGKSISTAYLQWSSLKASDTAMYYCARHGRGYDAYEGAFDIWGQGTMVTVSS VL: AIQLTQSPSSLSASVGDRVTITCRASQGISSALAWYQQKPGKAPKLLIYDASSLESGVPSRFSGSGSGTDFTLTISSLQPEDFATYYCQQFRSSPLTFGGGTKVEIKR", "binding result": "no binding"}
{"BINDER": "ABTx261 (antibody, human IgG1, kappa, V domains shown) VH: QVQLVQSGAAVKKPGESLKISCKGSGYRFTSYWIGWVRQMPGKGLEWMGIIYPGDSDTKYSPSFQGQVTISAGKSISTAYLQWSSLKASDTAMYYCARHGRGYDAYEGAFDIWGQGTMVTVSS VL: AIQLTQSPSSLSASVGDRVTITCRASQGISSALAWYQQKPGKAPKLLIYDASSLESGVPSRFSGSGSGTDFTLTISSLQPEDFATYYCQQTRSYPLTFGGGTKVEIKR", "binding result": "no binding"}
{"BINDER": "ABTx268 (antibody, human IgG1, kappa, V domains shown) VH: QVQLVQSGAAVKKPGESLKISCKGSGYRFTSYWIGWVRQMPGKGLEWMGIIYPGDSDTKYSPSFQGQVTISAGKSISTAYLQWSSLKASDTAMYYCARHGRGYDGYEGAFDIWGQGTMVTVSS VL: AIQLTQSPSSLSASVGDRVTITCRASQGISSALAWYQQKPGKAPKLLIYDASSLESGVPSRFSGSGSGTDFTLTISSLQPEDFATYYCQQVNSYPLTFGGGTKVEIKR", "binding result": "no binding"}
